System: BT-549 breast
Experiment Description: NCI tumour cell line growth inhibition, 48 h
Measured Metric: TGI

For the 4 molecules below, give their TGI values.
1. O=C1c2cc([N+](=O)[O-])ccc2NC2C(O)c3ccccc3N12 (stereo unspecified)
2. Oc1ccc2ccccc2c1-c1nnc(CCCCCCCCc2nnc(-c3c(O)ccc4ccccc34)o2)o1
3. C=C(CCOC)CCC1CCCCC(=C)C1=O (stereo unspecified)
4. O=C1c2ccccc2NC2C(O)c3ccccc3N12 (stereo unspecified)

a:
["61.4 µM", "> 100 µM", "> 100 µM", "> 100 µM"]

====

Would you kindly list TGI for each of these compounds?
Test system: MOLT-4 leukemia
Experiment Description: NCI tumour cell line growth inhibition, 48 h

Batch request: TGI per item, same order as input.
1. CC1(C)OC[C@@H](/C=C\CCO[Si](c2ccccc2)(c2ccccc2)C(C)(C)C)N1C(=O)c1ccccc1
2. O=C1OC(c2ccc(O)cc2)(c2ccc(O)cc2)c2cccc3cccc1c23
3. CC1CCC(O)C(C(O)CC2CC(=O)N(C)C(=O)C2)C1 (stereo not given)
4. COC(=O)c1cc(Nc2ccc(O)c3c2C(=O)c2c([N+](=O)[O-])ccc(O)c2C3=O)cc(C(=O)OC)c1
5. CCOc1ccc(NC(=O)c2c(N/N=C/c3ccc(OC)cc3)nc(=O)[nH]c2C)cc1
6. CCCCn1cc(C(=O)O)c(=O)c2c3sccc3ccc21

a:
1. 47.1 µM
2. 33.8 µM
3. > 100 µM
4. > 100 µM
5. > 100 µM
6. > 100 µM

====

Please provide measured TGI for the entries that follow.
Tested on: U251 CNS
Experiment Description: NCI tumour cell line growth inhibition, 48 h

Recorded TGI, per entry:
- Molecule: "CC(CC(=O)O)(CC(=O)O)C(=O)O"
  Test System: "U251 CNS"
  TGI: "> 100 µM"
- Molecule: "Cc1cc(NS(=O)(=O)c2ccc(Nc3c4ccccc4nc4c(C(=O)NCCN(C)C)ccc(Cl)c34)cc2)no1"
  Test System: "U251 CNS"
  TGI: "13.6 µM"
- Molecule: "N#Cc1c(=O)c2cccnc2n2c1[nH]c1ccccc12"
  Test System: "U251 CNS"
  TGI: "> 100 µM"

Please supply TGI for each of the following items, keeping them in order.
1. CCOC(=O)c1cnc2[nH]c(=O)c3ccccc3n2c1=O
2. O=C(/C=C/N1CCN(c2cccc(C(F)(F)F)c2)CC1)c1ccc(Cl)cc1Cl

a:
1. > 100 µM
2. 59.8 µM

====

Consider the following compounds; for each one, report its TGI.
Tested on: IGROV1 ovarian
Experiment Description: NCI tumour cell line growth inhibition, 48 h
Numbers only, in µM.

- Compound: "CCOC(=O)c1c2c(n(C)c1-c1ccccc1)C(=O)C(C)=CC2=O"
  Value Units: "µM"
  Readout Value: 17.6

Please report TGI for every entry that follows.
1. C#CC(C)(C)Oc1cc(OC)c2c(=O)c3ccccc3n(C)c2c1
2. O=C(C[C@@H]1NCCC[C@H]1O)Cn1cnc2cc(Br)c(Cl)cc2c1=O
3. Cc1nn(-c2ccccc2)c2c1C1C(=C(c3ccc(Cl)cc3)N2)C(=O)Nc2ccccc21 (stereo not given)

a:
[45, 0.158, 60.2]

====

System: COLO 205 colon
Experiment Description: NCI tumour cell line growth inhibition, 48 h
Measured Metric: TGI

Here are 4 compounds together with their reported answers.
- Compound: "O=S1(=O)NNC(=NCc2ccc(F)cc2)c2ccccc21"
  Measured Metric: "TGI"
  Readout Value: "> 100 µM"
- Compound: "O=C1c2ccccc2NC2C(O)c3ccccc3N12 (stereo not given)"
  Measured Metric: "TGI"
  Readout Value: "> 100 µM"
- Compound: "N#Cc1c(=O)c2cccnc2n2c1[nH]c1ccccc12"
  Measured Metric: "TGI"
  Readout Value: "> 100 µM"
- Compound: "CN1CCCC1c1cccnc1.O=C(O)c1ccccc1O.O=C([O-])c1ccccc1[OH2+].O=C([O-])c1ccccc1[OH2+].O=C([O-])c1ccccc1[OH2+].[Mn+2] (stereo not given)"
  Measured Metric: "TGI"
  Readout Value: "> 100 µM"

Now let's try a different one.
Tested on COLO 205 colon, the item COc1ccc(C2=CC(c3cc(OC)c(OC)c(OC)c3)n3ncnc3N2)cc1 (stereo not given) showed TGI equal to 0.16 µM

Data provenance is PubChem BioAssay (NCI).
